Origin of values: patent US9957278B2

- Tested on: genotype 1b (Con-1) HCV replicon
- assay_details: HCV Replicon Luciferase Assay (genotype 1b)
- Type: cell-based
- test_settings: Hepatitis C virus, 72 h; genotype 1b replicon in Huh-7 cells, Renilla luciferase, 3 days incubation; read-out: EC50 1b (class)
For each record, write down the corresponding EC50.

// below: answered molecules
molecule	recorded_value
CNC(=O)c1c(-c2ccc(F)cc2)oc2nc(NCC(F)(F)F)c(-c3cccc(C(=O)NCC(C)(C)C)c3)cc12 [Compound 30011]	< 100 nM
CNC(=O)c1c(-c2ccc(F)cc2)oc2nc(NCC(F)(F)F)c(-c3cccc(C(=O)NC(C)(C)CO)c3)cc12 [Compound 30010]	< 100 nM

Here is the next item to consider.
Exercise: Value lookup for EC50; key = CNC(=O)c1c(-c2ccc(F)cc2)oc2nc(CCC(F)(F)F)c(-c3cccc(C(=O)NC(C)(C)C4CC4)c3)cc12 [Compound 20007]
Solution: < 100 nM
